System: HepG2
assayName: Cytotoxicity against human HepG2 cells assessed as reduction in cell viability incubated for 48 hrs by MTT assay
Assay type: functional, cell-based
conditionSummary: HepG2, 48 h
measuredMetric: log10(IC50) (log10 of the value in µM)

{"molecule": "COc1ccc(CCn2n[n+](C)c3c2C(C)(C)[C@@H]2CC[C@]4(C)[C@H](CC[C@@H]5[C@H]6[C@H]7OC[C@@]6(CCC7(C)C)CC[C@]54C)[C@@]2(C)C3)cc1", "testResult": 0.46}
{"molecule": "COC(Cn1n[n+](C)c2c1C(C)(C)[C@@H]1CC[C@]3(C)[C@H](CC[C@@H]4[C@H]5[C@H]6OC[C@@]5(CCC6(C)C)CC[C@]43C)[C@@]1(C)C2)OC", "testResult": 0.80}
{"molecule": "COc1ccccc1Cn1nnc2c1C(C)(C)[C@@H]1CC[C@]3(C)[C@H](CC[C@@H]4[C@H]5[C@H]6OC[C@@]5(CCC6(C)C)CC[C@]43C)[C@@]1(C)C2", "testResult": 1.67}
{"molecule": "CC1(C)CC[C@]23CC[C@]4(C)[C@H](CC[C@@H]5[C@@]6(C)Cc7nnn(Cc8cccc(Cl)c8)c7C(C)(C)[C@@H]6CC[C@]54C)[C@H]2[C@H]1OC3", "testResult": 1.49}
{"molecule": "CC1(C)CC[C@]23CC[C@]4(C)[C@H](CC[C@@H]5[C@@]6(C)CC[C@H](O)C(C)(C)[C@@H]6CC[C@]54C)[C@H]2[C@H]1OC3", "testResult": 1.75}
{"molecule": "C[n+]1nn(Cc2ccccc2F)c2c1C[C@]1(C)[C@H]3CC[C@@H]4[C@H]5[C@H]6OC[C@@]5(CCC6(C)C)CC[C@@]4(C)[C@]3(C)CC[C@H]1C2(C)C", "testResult": 0.48}
{"molecule": "C[n+]1nn(Cc2ccc(F)cc2)c2c1C[C@]1(C)[C@H]3CC[C@@H]4[C@H]5[C@H]6OC[C@@]5(CCC6(C)C)CC[C@@]4(C)[C@]3(C)CC[C@H]1C2(C)C", "testResult": 0.46}
{"molecule": "CC1(C)CC[C@]23CC[C@]4(C)[C@H](CC[C@@H]5[C@@]6(C)Cc7nnn(Cc8ccccc8)c7C(C)(C)[C@@H]6CC[C@]54C)[C@H]2[C@H]1OC3", "testResult": 1.77}
{"molecule": "COc1cc(Cn2nnc3c2C(C)(C)[C@@H]2CC[C@]4(C)[C@H](CC[C@@H]5[C@H]6[C@H]7OC[C@@]6(CCC7(C)C)CC[C@]54C)[C@@]2(C)C3)cc(OC)c1OC", "testResult": 1.08}
{"molecule": "CC1(C)CC[C@]23CC[C@]4(C)[C@H](CC[C@@H]5[C@@]6(C)Cc7nnn(CCc8c[nH]c9ccccc89)c7C(C)(C)[C@@H]6CC[C@]54C)[C@H]2[C@H]1OC3", "testResult": 1.16}
{"molecule": "COc1cccc(Cn2nnc3c2C(C)(C)[C@@H]2CC[C@]4(C)[C@H](CC[C@@H]5[C@H]6[C@H]7OC[C@@]6(CCC7(C)C)CC[C@]54C)[C@@]2(C)C3)c1", "testResult": 1.10}
{"molecule": "C[n+]1nn(Cc2c(F)cccc2Cl)c2c1C[C@]1(C)[C@H]3CC[C@@H]4[C@H]5[C@H]6OC[C@@]5(CCC6(C)C)CC[C@@]4(C)[C@]3(C)CC[C@H]1C2(C)C.[I-]", "testResult": 0.42}
{"molecule": "CCCCCCn1n[n+](C)c2c1C(C)(C)[C@@H]1CC[C@]3(C)[C@H](CC[C@@H]4[C@H]5[C@H]6OC[C@@]5(CCC6(C)C)CC[C@]43C)[C@@]1(C)C2", "testResult": 0.29}
{"molecule": "CCCCCCCCn1n[n+](C)c2c1C(C)(C)[C@@H]1CC[C@]3(C)[C@H](CC[C@@H]4[C@H]5[C@H]6OC[C@@]5(CCC6(C)C)CC[C@]43C)[C@@]1(C)C2", "testResult": 0.30}
{"molecule": "C[n+]1nn(Cc2ccccc2)c2c1C[C@]1(C)[C@H]3CC[C@@H]4[C@H]5[C@H]6OC[C@@]5(CCC6(C)C)CC[C@@]4(C)[C@]3(C)CC[C@H]1C2(C)C", "testResult": 0.46}
{"molecule": "CC1(C)CC[C@]23CC[C@]4(C)[C@H](CC[C@@H]5[C@@]6(C)Cc7nnn(Cc8ccc(Cl)c(Cl)c8)c7C(C)(C)[C@@H]6CC[C@]54C)[C@H]2[C@H]1OC3", "testResult": 1.73}
{"molecule": "C[n+]1nn(Cc2cccc(F)c2)c2c1C[C@]1(C)[C@H]3CC[C@@H]4[C@H]5[C@H]6OC[C@@]5(CCC6(C)C)CC[C@@]4(C)[C@]3(C)CC[C@H]1C2(C)C", "testResult": 0.35}
{"molecule": "CC1(C)CC[C@]23CC[C@]4(C)[C@H](CC[C@@H]5[C@@]6(C)Cc7nnn(Cc8ccc(C(F)(F)F)cc8)c7C(C)(C)[C@@H]6CC[C@]54C)[C@H]2[C@H]1OC3", "testResult": 1.46}
{"molecule": "CC1(C)CC[C@]23CC[C@]4(C)[C@H](CC[C@@H]5[C@@]6(C)Cc7nnn(Cc8ccc(F)cc8F)c7C(C)(C)[C@@H]6CC[C@]54C)[C@H]2[C@H]1OC3", "testResult": 0.82}

* * *

Tested on: HeLa
assayName: Cytotoxicity against human HeLa cells assessed as reduction in cell viability incubated for 48 hrs by MTT assay
Type: functional, cell-based
measuredMetric: log10(IC50) (log10 of the value in µM)

{"molecule": "C[n+]1nn(Cc2ccccc2)c2c1C[C@]1(C)[C@H]3CC[C@@H]4[C@H]5[C@H]6OC[C@@]5(CCC6(C)C)CC[C@@]4(C)[C@]3(C)CC[C@H]1C2(C)C", "testResult": 0.48}
{"molecule": "COc1cccc(Cn2nnc3c2C(C)(C)[C@@H]2CC[C@]4(C)[C@H](CC[C@@H]5[C@H]6[C@H]7OC[C@@]6(CCC7(C)C)CC[C@]54C)[C@@]2(C)C3)c1", "testResult": 1.05}
{"molecule": "C[n+]1nn(Cc2c(F)cccc2Cl)c2c1C[C@]1(C)[C@H]3CC[C@@H]4[C@H]5[C@H]6OC[C@@]5(CCC6(C)C)CC[C@@]4(C)[C@]3(C)CC[C@H]1C2(C)C.[I-]", "testResult": 0.33}
{"molecule": "CC1(C)CC[C@]23CC[C@]4(C)[C@H](CC[C@@H]5[C@@]6(C)Cc7nnn(Cc8ccc(C(F)(F)F)cc8)c7C(C)(C)[C@@H]6CC[C@]54C)[C@H]2[C@H]1OC3", "testResult": 1.45}
{"molecule": "CCCCCCCCn1n[n+](C)c2c1C(C)(C)[C@@H]1CC[C@]3(C)[C@H](CC[C@@H]4[C@H]5[C@H]6OC[C@@]5(CCC6(C)C)CC[C@]43C)[C@@]1(C)C2", "testResult": 0.41}

* * *

System: HepG2
assayName: Cytotoxicity against human HepG2 cells assessed as reduction in cell viability incubated for 48 hrs by MTT assay
Type: functional, cell-based
conditionSummary: HepG2, 48 h
pIC50: −log10 of the molar value.
Each entry below carries its reported pIC50.

{"molecule": "CC1(C)CC[C@]23CC[C@]4(C)[C@H](CC[C@@H]5[C@@]6(C)Cc7nnn(Cc8ccccn8)c7C(C)(C)[C@@H]6CC[C@]54C)[C@H]2[C@H]1OC3", "pIC50": "< 4.10"}
{"molecule": "CCCCCCn1nnc2c1C(C)(C)[C@@H]1CC[C@]3(C)[C@H](CC[C@@H]4[C@H]5[C@H]6OC[C@@]5(CCC6(C)C)CC[C@]43C)[C@@]1(C)C2", "pIC50": "< 4.10"}
{"molecule": "COC(Cn1nnc2c1C(C)(C)[C@@H]1CC[C@]3(C)[C@H](CC[C@@H]4[C@H]5[C@H]6OC[C@@]5(CCC6(C)C)CC[C@]43C)[C@@]1(C)C2)OC", "pIC50": "< 4.10"}

* * *

Test system: HeLa
assayName: Cytotoxicity against human HeLa cells assessed as reduction in cell viability incubated for 48 hrs by MTT assay
Type: functional, cell-based
pIC50: −log10 of the molar value.
measuredMetric: pIC50

{"molecule": "CC1(C)CC[C@]23CC[C@]4(C)[C@H](CC[C@@H]5[C@@]6(C)Cc7nnn(Cc8ccccc8)c7C(C)(C)[C@@H]6CC[C@]54C)[C@H]2[C@H]1OC3", "testResult": "< 4.10"}
{"molecule": "CCCCCCCCn1nnc2c1C(C)(C)[C@@H]1CC[C@]3(C)[C@H](CC[C@@H]4[C@H]5[C@H]6OC[C@@]5(CCC6(C)C)CC[C@]43C)[C@@]1(C)C2", "testResult": "< 4.10"}
{"molecule": "CC1(C)CC[C@]23CC[C@]4(C)[C@H](CC[C@@H]5[C@@]6(C)Cc7nnn(Cc8ccccn8)c7C(C)(C)[C@@H]6CC[C@]54C)[C@H]2[C@H]1OC3", "testResult": "< 4.10"}
{"molecule": "CCCCCCn1nnc2c1C(C)(C)[C@@H]1CC[C@]3(C)[C@H](CC[C@@H]4[C@H]5[C@H]6OC[C@@]5(CCC6(C)C)CC[C@]43C)[C@@]1(C)C2", "testResult": "< 4.10"}

These measurements were taken from ChEMBL document CHEMBL4706545.
